# Tested on: KRAS PDC multicell spheroid viability;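 also: spheroids exposed to compounds for 7 days; 100% = DMSO vehicle control viability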
# Experiment summary: Anticancer human tumor 825966-067-R-J1-PDC patient-derived colon carcinoma cell line growth inhibition [KRAS2]
# Experimental setup: second compound 3.16 µM; first compound 10 µM; hits give low values
Measurement type: viability, T/C (%)
The answer is to be given in %; state only the numeric part.

Sample COc1cc2nccc(Oc3ccc(NC(=O)C4(C(=O)Nc5ccc(F)cc5)CC4)cc3)c2cc1OC + CNCc1ccccc1-c1csc(C(C)Nc2nc(C)nc3cc(OC)c(OC)cc23)c1 ; viability, T/C observed: 0.24

Sample O=C(c1cc(Cc2n[nH]c(=O)c3ccccc23)ccc1F)N1CCN(C(=O)C2CC2)CC1 + C=CC(=O)N1CCN(c2nc(=O)n(-c3c(C)ccnc3C(C)C)c3nc(-c4c(O)cccc4F)c(F)cc23)C(C)C1 ; viability, T/C observed: 70.4

Sample O=C(c1cc(Cc2n[nH]c(=O)c3ccccc23)ccc1F)N1CCN(C(=O)C2CC2)CC1 + COc1cc2nc(C)nc(NC(C)c3cc(N)cc(C(F)(F)F)c3)c2cc1OC1CCOC1 ; viability, T/C observed: 88.8

Sample CC(C)NCC(C(=O)N1CCN(c2ncnc3c2C(C)CC3O)CC1)c1ccc(Cl)cc1 (centres undefined) + C=CC(=O)N1CCN(c2nc(=O)n(-c3c(C)ccnc3C(C)C)c3nc(-c4c(O)cccc4F)c(F)cc23)C(C)C1 ; viability, T/C observed: 9.85
